Ref: the supplement of paper PMC4466140

System Tested: AgHof1
Assay Procedure: SPOT peptide array binding signal intensity (averaged, normalized) (arbitrary units (background-subtracted, floor 0; scale differs between SH3 domains)); higher = stronger binding of the SH3 domain to the peptide
Property: SPOT peptide array binding signal intensity

Binder	Experimental Value
IRMPSNPALPKKLLN	59.5
TKRKRPARLIFYDSK	20.5
LRWRHKFFLPAIAAI	9.38
VRTRRRPPPPPIPST	258
ILARAILTIPRVLDK	34.5
FFRRSELYLPNSSKA	25
TSFKGRPKPPKTLKH	22.5
